test: activity coefficient (dimensionless); of the first substance listed, at infinite dilution; xn = mol fraction of the nth substance listed; conditions: 343.1 K; 101 kPa; Liquid; Chromatography; x1 = 0
test.readout: activity coefficient
Just the number, please.

Some entries whose results are on file:
>>> print(df.to_string())
                                   molecule          test_readout  observed_value
0  CO [methanol] + CCCC[n+]1ccccc1.O=S(=O)([N-]S(=O)(=O)C(F)(F)F)C(F)(F)F  activity coefficient            1.25
1  Cc1ccccc1C [1,2-dimethylbenzene] + CC[n+]1ccccc1.O=S(=O)([N-]S(=O)(=O)C(F)(F)F)C(F)(F)F  activity coefficient             2.7

Provide measured activity coefficient value, entry: C#CCCCC [1-hexyne] + CCCC[n+]1ccccc1.O=S(=O)([N-]S(=O)(=O)C(F)(F)F)C(F)(F)F
3.04

Write down activity coefficient measured for item c1ccccc1 [benzene] + CCCC[n+]1ccccc1.O=S(=O)([N-]S(=O)(=O)C(F)(F)F)C(F)(F)F
1.35

----------
assay: activity coefficient (dimensionless); of the first substance listed, at infinite dilution; xn = mol fraction of the nth substance listed; settings: 312.6 K; 101 kPa; Liquid; Chromatography; x1 = 0
Could you mark each record met if its activity coefficient falls strictly under 3, and not met if it equals or exceeds it?

# example entries with known answers
In [3]: df
Out[3]:
                                   compound  discrete_label
0  Cc1ccccc1 [toluene] + CCCC[n+]1ccccc1.O=S(=O)([N-]S(=O)(=O)C(F)(F)F)C(F)(F)F             met
1  CCc1ccccc1 [ethylbenzene] + CCCC[n+]1ccccc1.O=S(=O)([N-]S(=O)(=O)C(F)(F)F)C(F)(F)F             met
2  C=CCCCCCCCC [1-decene] + CCCCC[n+]1ccccc1.O=S(=O)([N-]S(=O)(=O)C(F)(F)F)C(F)(F)F         not met
3  c1ccccc1 [benzene] + CCCCC[n+]1ccccc1.O=S(=O)([N-]S(=O)(=O)C(F)(F)F)C(F)(F)F             met
4  C=CCCCCCC [oct-1-ene] + CCCCC[n+]1ccccc1.O=S(=O)([N-]S(=O)(=O)C(F)(F)F)C(F)(F)F         not met
5  c1ccccc1 [benzene] + CCCC[n+]1ccccc1.O=S(=O)([N-]S(=O)(=O)C(F)(F)F)C(F)(F)F             met

Then this compound:
Is activity coefficient strictly under 3 for the entry CCCCCCCCC [nonane] + CCCC[n+]1ccccc1.O=S(=O)([N-]S(=O)(=O)C(F)(F)F)C(F)(F)F ?
not met

----------
# Lookup of reported activity coefficient keyed by entry
experiment: activity coefficient (dimensionless); of the first substance listed, at infinite dilution; xn = mol fraction of the nth substance listed; conditions: 323.4 K; 101 kPa; Liquid; Chromatography; x1 = 0
Could you keep your reply to the number by itself?

Check out these entries, answers already filled in.
In [3]: df
Out[3]:
                                   molecule  observed_value
0  CO [methanol] + CCCCC[n+]1ccccc1.O=S(=O)([N-]S(=O)(=O)C(F)(F)F)C(F)(F)F            1.31
1  C#CCCCC [1-hexyne] + CCCCC[n+]1ccccc1.O=S(=O)([N-]S(=O)(=O)C(F)(F)F)C(F)(F)F            2.66
2  C1CCCCC1 [cyclohexane] + CCCCC[n+]1ccccc1.O=S(=O)([N-]S(=O)(=O)C(F)(F)F)C(F)(F)F            5.91
3  CCc1ccccc1 [ethylbenzene] + CCCCC[n+]1ccccc1.O=S(=O)([N-]S(=O)(=O)C(F)(F)F)C(F)(F)F            1.96
4  CC1CCCCC1 [methylcyclohexane] + CCCCC[n+]1ccccc1.O=S(=O)([N-]S(=O)(=O)C(F)(F)F)C(F)(F)F            8.48

Input CCCCCCCCC [nonane] + CCCCC[n+]1ccccc1.O=S(=O)([N-]S(=O)(=O)C(F)(F)F)C(F)(F)F , output reported activity coefficient.
30.2

Tell me activity coefficient reported for Cc1ccccc1C [1,2-dimethylbenzene] + CCCCC[n+]1ccccc1.O=S(=O)([N-]S(=O)(=O)C(F)(F)F)C(F)(F)F
1.63

Read off the recorded activity coefficient for CCCO [propan-1-ol] + CCCCC[n+]1ccccc1.O=S(=O)([N-]S(=O)(=O)C(F)(F)F)C(F)(F)F
2.02

Please list activity coefficient recorded for the molecule CCCCCCC [heptane] + CCCCC[n+]1ccccc1.O=S(=O)([N-]S(=O)(=O)C(F)(F)F)C(F)(F)F
12.6

Check the records and state activity coefficient for CCCCCC [hexane] + CCCCC[n+]1ccccc1.O=S(=O)([N-]S(=O)(=O)C(F)(F)F)C(F)(F)F
7
